Target: T1, recombinant human IL-23 (human, UniProt Q9NPF7 20-189; P29460 23-328)
T1 construct: also called hIL-23
T1 sequence 1: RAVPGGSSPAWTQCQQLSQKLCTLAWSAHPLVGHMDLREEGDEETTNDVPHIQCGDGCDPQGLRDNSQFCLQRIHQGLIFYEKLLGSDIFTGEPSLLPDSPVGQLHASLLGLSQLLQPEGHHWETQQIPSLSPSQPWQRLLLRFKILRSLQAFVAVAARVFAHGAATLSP
T1 sequence 2: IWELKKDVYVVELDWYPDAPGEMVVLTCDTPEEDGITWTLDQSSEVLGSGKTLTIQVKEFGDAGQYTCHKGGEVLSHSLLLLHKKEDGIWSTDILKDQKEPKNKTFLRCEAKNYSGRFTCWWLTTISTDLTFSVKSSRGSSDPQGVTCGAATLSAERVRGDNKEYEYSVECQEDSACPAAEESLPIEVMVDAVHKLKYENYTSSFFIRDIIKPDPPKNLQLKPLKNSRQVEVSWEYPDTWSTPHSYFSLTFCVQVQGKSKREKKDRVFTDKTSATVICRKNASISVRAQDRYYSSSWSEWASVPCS
Experiment: SPR (Biacore 3000), CHO supernatant antibody captured on Protein A or anti-human IgG, IL-23 analyte at 256, 64, 16, 4 nM
Measurement kind: kon

(Q) Give its kon value. Item: A3N1 (antibody, human IgG1, kappa, V domains shown, Full length chains) VH: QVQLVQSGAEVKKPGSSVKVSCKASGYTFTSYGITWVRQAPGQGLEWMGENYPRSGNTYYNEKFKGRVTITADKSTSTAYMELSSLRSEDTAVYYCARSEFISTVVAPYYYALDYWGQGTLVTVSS VL: DIVMTQTPLSLSVTPGQPASISCKASKKVTIFGSISALHWYLQKPGQPPQLIYNGAKLESGVSDRFSDSGSQNRSPFGNQLSFTLKISRVEAEDVGVYYCLQNKEVPYTFGGGTKVEIKR
(A) 170000 M⁻¹ s⁻¹

(Q) Give its kon value. Item: A3N2 (antibody, human IgG1, kappa, V domains shown, Full length chains) VH: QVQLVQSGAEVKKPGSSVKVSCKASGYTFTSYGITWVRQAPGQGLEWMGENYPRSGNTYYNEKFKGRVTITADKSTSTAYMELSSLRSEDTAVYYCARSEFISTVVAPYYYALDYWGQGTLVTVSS VL: DIVMTQTPLSLSVTPGQPASISCKASKKVTIFGSISALHWYLQKPGQPPQLIYNGAKLESGVSDRFSDSGSGTDFTLKISRVEAEDVGVYYCLQNKEVPYTFGGGTKVEIKR
(A) 280000 M⁻¹ s⁻¹

(Q) Give its kon value. Item: A3M0 (antibody, human IgG1, kappa, V domains shown, Full length chains; also called humanized mAb A3M0) VH: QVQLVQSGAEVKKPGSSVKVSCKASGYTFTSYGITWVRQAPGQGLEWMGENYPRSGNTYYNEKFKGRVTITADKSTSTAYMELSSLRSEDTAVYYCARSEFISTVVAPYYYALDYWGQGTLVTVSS VL: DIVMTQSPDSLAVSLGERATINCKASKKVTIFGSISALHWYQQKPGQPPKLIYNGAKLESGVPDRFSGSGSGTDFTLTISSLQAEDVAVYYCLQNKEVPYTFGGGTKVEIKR
(A) 300000 M⁻¹ s⁻¹

(Q) Give its kon value. Item: A3M1 (antibody, human IgG1, kappa, V domains shown, Full length chains) VH: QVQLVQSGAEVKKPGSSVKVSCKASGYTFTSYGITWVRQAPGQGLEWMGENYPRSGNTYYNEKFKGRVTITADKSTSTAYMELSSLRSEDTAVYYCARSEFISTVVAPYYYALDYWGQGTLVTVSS VL: DIVMTQSPDSLAVSLGERATINCKASKKVTIFGSISALHWYQQKPGQPPKLIYNGAKLESGVSDRFSDSGSQNRSPFGNQLSFTLTISSLQAEDVAVYYCLQNKEVPYTFGGGTKVEIKR
(A) 240000 M⁻¹ s⁻¹

Attribution: patent US20090123479A1
